study_system: OR3A2 (Homo sapiens) (UniProt P47893)
Sequence (whole entry): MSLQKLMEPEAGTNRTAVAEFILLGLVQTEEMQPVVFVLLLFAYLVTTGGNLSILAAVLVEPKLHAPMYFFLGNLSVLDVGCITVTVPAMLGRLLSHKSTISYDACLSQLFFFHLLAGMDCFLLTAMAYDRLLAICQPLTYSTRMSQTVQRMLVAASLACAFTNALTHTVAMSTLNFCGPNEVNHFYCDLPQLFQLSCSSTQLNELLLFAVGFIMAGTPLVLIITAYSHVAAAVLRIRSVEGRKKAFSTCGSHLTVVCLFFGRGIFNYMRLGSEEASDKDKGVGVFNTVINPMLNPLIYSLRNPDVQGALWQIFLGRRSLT
condition_label: stereoisomer not certain
assay_metric: odorant receptor agonist call

compound="CC1=C(O)C(=O)OC1C (configuration not stated)" experimental_value=inactive
compound="CCCCCC(=O)C(C)C(C)=O (configuration not stated)" experimental_value=inactive
compound="CCCCCC(S)C(C)CO (configuration not stated)" experimental_value=inactive
compound="CC1=C(O)C(=O)C(C)O1 (configuration not stated)" experimental_value=inactive
compound="CC1=NC(C)C(C)S1 (configuration not stated)" experimental_value=inactive

Given item `CCCCCCC=CCCC=O` , the value recorded as its odorant receptor agonist call is inactive

// odorant receptor agonist call lookup, compound = `CC(=O)c1c(C)c([N+](=O)[O-])c(C(C)(C)C)c([N+](=O)[O-])c1C` , result: inactive

###

study_system: UniProt E1BM68
Sequence (whole entry): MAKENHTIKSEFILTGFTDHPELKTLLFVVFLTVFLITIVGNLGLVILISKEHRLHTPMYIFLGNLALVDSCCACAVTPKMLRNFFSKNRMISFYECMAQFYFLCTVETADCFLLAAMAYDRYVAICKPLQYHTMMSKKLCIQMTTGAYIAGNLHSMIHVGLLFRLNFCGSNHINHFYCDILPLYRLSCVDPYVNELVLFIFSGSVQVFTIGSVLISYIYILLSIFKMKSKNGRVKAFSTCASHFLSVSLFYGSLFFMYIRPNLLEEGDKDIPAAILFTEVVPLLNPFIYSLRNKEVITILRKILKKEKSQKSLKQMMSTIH
condition_label: stereoisomer not certain
A correct response names exactly one class from true (active), false (inactive)

## Input Per the records of this test, what outcome belongs to `CCc1nccnc1OC` ?
## Output true

## Input What is the recorded call for this compound in the test? `COc1cnccn1`
## Output true

## Input Hello, I am checking results. What call was entered for `CC(=O)c1cnccn1` ?
## Output true

## Input State the result this test recorded for `Cc1cnccn1` .
## Output true

## Input Assay result, entry `Cc1nccnc1C` — outcome?
## Output true

## Input Kindly provide the recorded test outcome for the following compound: CC1=NC(C)C(C)S1 (configuration not stated)
## Output true

## Input Recorded test outcome, item `CCc1nccnc1C`
## Output true

## Input Given `CCc1ncc(C)nc1CC` , state the outcome it received in this test.
## Output true

## Input # fetch the recorded call for COC1=C(C)OC(C)C1=O (configuration not stated) here
## Output false

## Input Please state the recorded outcome for this compound: `CC(=O)c1nccnc1C`
## Output true

## Input What did this assay record as the result for `CCc1nccnc1CC` ?
## Output true

## Input What call does the record list for `Cc1cnc(C)c(C)n1` ?
## Output true

###

study_system: OR7G2 (Homo sapiens)
Sequence (whole entry): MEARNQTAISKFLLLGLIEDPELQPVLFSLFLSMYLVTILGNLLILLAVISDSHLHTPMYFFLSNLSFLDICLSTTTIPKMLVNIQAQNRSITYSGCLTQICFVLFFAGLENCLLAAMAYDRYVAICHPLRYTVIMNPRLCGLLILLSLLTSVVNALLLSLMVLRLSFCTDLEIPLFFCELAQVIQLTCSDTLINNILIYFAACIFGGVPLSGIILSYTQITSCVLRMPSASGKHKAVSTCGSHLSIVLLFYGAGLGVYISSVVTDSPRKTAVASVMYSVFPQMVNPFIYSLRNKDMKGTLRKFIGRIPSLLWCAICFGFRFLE
condition_label: stereoisomer not certain
assay_metric: odorant receptor agonist call

In the examples that follow, each entry is paired with its recorded odorant receptor agonist call.
molecule="CC(CO)CS (stereo not given)" assay_metric="odorant receptor agonist call" experimental_value=inactive
molecule="CCCCCC(=O)C(C)C(C)=O (stereo not given)" assay_metric="odorant receptor agonist call" experimental_value=inactive
molecule=CCCCCCC=CCCC=O assay_metric="odorant receptor agonist call" experimental_value=inactive
molecule=CC(=O)c1c(C)c([N+](=O)[O-])c(C(C)(C)C)c([N+](=O)[O-])c1C assay_metric="odorant receptor agonist call" experimental_value=inactive

Reported odorant receptor agonist call for CCCCCC(S)C(C)CO (stereo not given) was inactive

###

study_system: OR4A16 (Homo sapiens)
condition_label: stereoisomer not certain
Respond only with the outcome that fits, drawn from active, inactive

## Input Entry CCCCCC(=O)C(C)C(C)=O (stereo not given) : call = ?
## Output inactive

## Input I would be grateful if you could indicate the recorded call for CC1=NC(C)C(C)S1 (stereo not given) .
## Output inactive

## Input Can you look up the reported call for CCCCCC(S)C(C)CO (stereo not given) for me?
## Output active

## Input Fill in: this test's call for CC1CCCCCCCCCCCCC(=O)C1 (stereo not given) is ___
## Output inactive

## Input Tell me the recorded outcome of this test for CCC1OC(=O)C(O)=C1C (stereo not given) .
## Output inactive

## Input Dear colleague, could you share the recorded outcome for CC1=C(O)C(=O)C(C)O1 (stereo not given) when you have a moment?
## Output inactive

## Input Assay result, entry CCCC(S)CCOC(C)=O (stereo not given) — outcome?
## Output inactive

## Input Recorded test outcome, item CCC(S)C(C)CO (stereo not given)
## Output inactive

## Input What outcome does the record of this test show for `Cc1cnc(C)c(C)n1` ?
## Output inactive

## Input Outcome logged for `CCCCCCC=CCCC=O` in this assay:
## Output inactive

###

study_system: UniProt E9QAT7
Sequence (E9QAT7 as listed by the source): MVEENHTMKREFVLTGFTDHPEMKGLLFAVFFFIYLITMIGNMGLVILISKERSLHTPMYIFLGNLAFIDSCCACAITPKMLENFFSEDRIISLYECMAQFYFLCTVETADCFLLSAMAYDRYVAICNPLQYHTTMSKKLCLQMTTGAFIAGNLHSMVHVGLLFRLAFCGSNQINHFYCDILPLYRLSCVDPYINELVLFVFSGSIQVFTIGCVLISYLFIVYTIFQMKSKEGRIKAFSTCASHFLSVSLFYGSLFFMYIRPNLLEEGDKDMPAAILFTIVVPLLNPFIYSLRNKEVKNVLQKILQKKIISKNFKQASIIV
condition_label: stereoisomer not certain
Pick from active, inactive when you respond.

## Input Hi, do you know how `COc1nccnc1C(C)C` came out in this test?
## Output inactive

## Input Each molecule tested received a call. Report the one for `Cc1nccnc1C` .
## Output inactive

## Input Name the outcome recorded for COC1=C(C)OC(C)C1=O (configuration not stated) in the assay.
## Output inactive

## Input GET /call?item= CC1=NC(C)C(C)S1 (configuration not stated) returns the recorded outcome of this test.
## Output active

## Input How was `CCc1ncc(C)nc1CC` classified in this test?
## Output active

## Input Outcome logged for `CC(=O)c1nccnc1C` in this assay:
## Output inactive

## Input Please let me know the test result on file for `Cc1cnc(C)cn1` .
## Output inactive

## Input Call for entry `CCc1nccnc1C` :
## Output inactive

## Input Tell me the recorded outcome of this test for `COc1cnccn1` .
## Output inactive

## Input // outcome(item) with item = `CC(=O)c1cnccn1`
## Output inactive

## Input Which outcome was entered for the molecule `CCc1nccnc1C(C)=O` in this test?
## Output inactive

## Input Per the assay record, what outcome was assigned to `Cc1cnccn1` ?
## Output inactive

###

study_system: Or2c1 (Mus musculus)
condition_label: stereoisomer not certain
Choose one outcome from this list and give only that: active, inactive

## Input Which result was noted for this compound in the test: `CCCCCC(=O)CC`
## Output inactive

## Input What classification did `O=C(c1ccccc1)c1ccccc1` end up with in this test?
## Output inactive

## Input // return assay outcome for `CCCCCC1=C(C)CCC1=O`
## Output inactive

## Input Record lookup: outcome of this test for `O=C1CCOc2ccccc21` ?
## Output inactive

## Input Tell me the assay call for `CCOC(=O)C(C)C` please.
## Output inactive

## Input Hi team, can someone confirm the assay call for `CCCCOC=O` ?
## Output inactive

## Input Field: outcome | Entry: `CC(=O)OCc1ccccc1`
## Output inactive

## Input Call for entry `CCCCC(=O)O` :
## Output inactive

## Input Hello, I am checking results. What call was entered for `CCCCCCO` ?
## Output inactive

## Input Which result was noted for this compound in the test: `CCC(=O)C(=O)CC`
## Output active

## Input How did this test come out for `CC(C)=CCCC(C)=CCO` ?
## Output inactive

## Input I'd appreciate the recorded outcome for CCCCOC(=O)C(C)OC(=O)CCC (stereo not drawn) from this test.
## Output inactive

## Input Tell me the recorded outcome of this test for `O=C1Cc2ccccc2O1` .
## Output active

## Input Please share the test call associated with `CCCCCCCCCO` .
## Output inactive

## Input Which outcome did this test record for the compound CC(C)=CCCC(C)CCO (stereo not drawn) ?
## Output inactive

## Input Write down the call the test reported for this compound. Item: C=C(C)C1CCC(C)C(=O)C1 (stereo not drawn)
## Output inactive

## Input # lookup: test call for `CCCCCCCCCS`
## Output inactive

## Input In this assay, the call recorded for `CCCCCO` was what?
## Output inactive

## Input Test call for this compound, please: `CCCCCCC(C)=O`
## Output inactive

## Input Any idea what this test logged for `COc1cc(C(=O)O)ccc1O` ?
## Output inactive

## Input For `CCCCCCCCC(=O)O` , what call appears in the results of this test?
## Output active

## Input Returns: the outcome recorded for `CCCCCCCCCC(=O)[O-].[H+]` in this assay.
## Output active

## Input Tell me the recorded outcome of this test for `CCCCCCOC(C)=O` .
## Output inactive

## Input Check the results log: what was the call for `CCCCCCCCCCO` ?
## Output inactive

## Input What is the recorded call for this compound in the test? `CCCCC(=O)CC`
## Output inactive

## Input Tell me the recorded outcome of this test for `CC(=O)Oc1ccccc1` .
## Output inactive

## Input Hi, sorry to bother you, what did the test record for `CCCCCOC(=O)CCCCC` ?
## Output active

## Input Hi, do you know how `c1ccccc1` came out in this test?
## Output inactive
